src = the kinase profiling compilation of Christmann-Franck et al. (2016)

- System: JAK3 JH1 JH2 (human)
- Test details: radiometric filter-binding kinase assay, Kinase HotSpot
- Condition notes: compound 0.5 µM; ATP 10 µM
Recorded measurements of residual activity, one per entry
Endpoint name: residual activity

INSERT INTO measurements (test_smiles, endpoint_name, result) VALUES
  ('Oc1ccc(Nc2nc(-c3ccc(Cl)cc3)cs2)cc1', 'residual activity', '92.2%'),
  ('CCN(CC)CCCCN1c2ccccc2Oc2ccc(Cl)cc21', 'residual activity', '106%'),
  ('Cn1cnc2cc3c(Nc4cccc(Br)c4)ncnc3cc21', 'residual activity', '106%'),
  ('O=C1NC(=O)/C(=C\c2ccc3nccnc3c2)S1', 'residual activity', '97.2%'),
  ('Cn1nc2c3c(cccc31)C(=O)c1ccccc1-2', 'residual activity', '107%'),
  ('O=C(O)/C=C/c1cc(Br)c(Br)c(Br)c1Br', 'residual activity', '71.8%'),
  ('CCn1cnc2c(Nc3cccc(Cl)c3)nc(N[C@@H]3CCCC[C@@H]3N)nc21', 'residual activity', '99.6%');
